# Tested on: Prevotella bivia
# TEST_DESCRIPTION: Antimicrobial activity against Prevotella bivia under anaerobic conditions after 44 hrs by CLSI-M11-47 protocol based agar dilution method
# Assay type: functional
MEASUREMENT_NAME: MIC50 (µg/mL)

{"columns": ["CHEM_SMILES", "MEASUREMENT_NAME", "COMPARATIVE_SIGN", "MEASURED_RESULT"],
 "data": [
  ["CCC[C@@H]1C[C@@H](C(=O)N[C@@H]([C@H]2O[C@H](SC)[C@H](O)[C@@H](O)[C@H]2O)[C@H](C)Cl)N(C)C1", "MIC50", "≤", 0.03],
  ["Cc1ncc([N+](=O)[O-])n1CCO", "MIC50", "=", 1],
  ["CCO/N=C(\\C(=O)N[C@@H]1C(=O)N2C(C(=O)[O-])=C(Sc3nc(-c4cc[n+](C)cc4)cs3)CS[C@H]12)c1nsc(NP(=O)(O)O)n1", "MIC50", "=", 2],
  ["CO/N=C(\\C(=O)N[C@@H]1C(=O)N2C(C(=O)O)=C(CSc3nc(=O)c(O)nn3C)CS[C@H]12)c1csc(N)n1", "MIC50", "=", 2]
]}
